Numbers sourced from PubChem BioAssay (NCI).

# Test system: 786-0 renal
# METHOD: NCI-60 one-dose screen, 48 h
# TEST_CONDITIONS: 10 µM unless noted
# Method: Cells are grown in 96 well plates and exposed to the test compound for 48 hours. Compounds are tested at a single concentration, which is 10^-5 M for most compounds. The reported endpoint is percent growth (GI% or GIPRCNT), where numbers from 0 - 100% represent growth inhibition, and numbers from -100% - 0 represent cell death. For example, a value of 40 represents 60% growth inhibition. A value of 0 means no net growth occurred over the course of the experiment. […]
Compounds without any hit were thinned out: in the full panel of roughly 83,000, 20% have a hit. The source made the active and inactive calls. Rule for the calls: active = growth percent below 10; inactive = the rest.
Possible outcomes: TRUE = active, FALSE = inactive

# COMPOUND, ASSIGNED_LABEL
rows = [
    ("O=C(/C=C/c1c(-c2ccc(Cl)cc2)nn(-c2ccccc2)c1C(F)(F)F)c1ccc(Cl)cc1", "FALSE"),
    ("COC(=O)/C=C1\\S/C(=N\\NC(=O)c2cc3ccc2/C=C\\c2ccc(cc2)/C=C\\3)N(c2ccccc2)C1=O", "TRUE"),
    ("CCOc1cccc(-c2nc(N)nc(Nc3ccccc3SSc3ccccc3Nc3nc(N)nc(-c4cccc(OCC)c4)n3)n2)c1", "FALSE"),
    ("COc1cc(/C=C/c2cc(O)c(C(C)=O)c(O)c2)cc2c1O[C@]1(C)CC[C@@H](O)C(C)(C)[C@H]1C2", "TRUE"),
    ("OC(c1ccc(F)c(C(F)(F)F)c1)c1cnccc1NC1CCCCC1 (stereo unspecified)", "FALSE"),
    ("N=C1C(c2nc3ccccc3s2)=C(O)CN1c1cc(Cl)cc(Cl)c1", "FALSE"),
    ("Cc1cc(C)c(S(=O)(=O)Oc2ccccc2[N+](=O)[O-])c(C)c1", "FALSE"),
    ("COc1cc2nc(-c3ccc(C(F)(F)F)cc3)cc(OCCN3CCCCC3)c2cc1OC", "FALSE"),
    ("O=C(Cc1ccc(/C=C/C(=O)c2nccs2)cc1)Nc1ccccc1", "FALSE"),
    ("COc1cc2c(=O)n(CCN)c3c4cc5c(cc4ccc3c2cc1OC)OCO5", "TRUE"),
    ("Cc1ccc(-c2nc3ccccn3c2/C=C2/C(=O)Nc3cc(Cl)ccc32)cc1", "FALSE"),
    ("C=C(CBr)[C@@H]1CC[C@]2(COC(C)=O)CC[C@]3(C)[C@H](CC[C@@H]4[C@@]5(C)CCCNC(C)(C)[C@@H]5CC[C@]43C)[C@@H]12", "FALSE"),
    ("Cc1ccc(NC(=O)Cc2ccc(/C=C/C(=O)c3ncc[nH]3)cc2)cc1", "FALSE"),
    ("COc1ccc(C(=O)CC#N)cc1", "FALSE"),
    ("CCOc1ccc(/C=N/Nc2cc(C)nc3ccc(Br)cc23)cc1", "FALSE"),
    ("Cc1cc2nc3c4cc(C=O)ccc4n(CCN(C)C)c3nc2cc1C", "FALSE"),
    ("O=[N+]([O-])CC(c1ccccc1F)c1c[nH]c2ccccc12 (stereo unspecified)", "FALSE"),
    ("Cc1c(C(=O)NCCC(=O)NO)sc2ncnc(Nc3ccc(F)c(Cl)c3)c12", "FALSE"),
    ("CC(=O)c1ccc(NS(=O)(=O)c2cccc(C(=O)Nc3ccc(Br)cc3)c2)cc1", "FALSE"),
    ("O=S(=O)(NCCNc1nccc(-c2c(-c3cccc(O)c3)nc3occn23)n1)c1ccccc1", "FALSE"),
    ("CC(C)=CCC[C@](C)(O)[C@H]1CC[C@]2(C)[C@@H]1CC[C@@H]1[C@@]3(C)C/C(=C/c4ccccc4)C(=O)C(C)(C)[C@@H]3CC[C@]12C", "FALSE"),
    ("O=C1c2ccc3c4c(ccc(c24)C(=O)N1CCCNCc1ccccc1Cl)C(=O)N(CCCNCc1ccccc1Cl)C3=O", "TRUE"),
    ("Nc1c(C(=O)Nc2ccnc3ccccc23)sc2nc3c(cc12)CN(Cc1ccccc1)CC3", "FALSE"),
    ("Cc1cc2cc3ccc(N(C)C)cc3nc2cc1N", "TRUE"),
    ("NC(=S)N1N=C(c2ccccc2)CC1c1cn(-c2ccccc2)nc1-c1ccc(OCc2ccccc2)cc1 (stereo unspecified)", "FALSE"),
    ("Cn1c2ccccc2c2c3c(c4c5ccccc5n(C)c4c21)C(=O)OC3", "FALSE"),
]
